- system.under.test: HGF (hepatocyte growth factor/scatter factor) (UniProt P14210;P14210 P14210:32-494,P14210:495-728)
- Sequence (P14210 32-494, chain 1 of 2): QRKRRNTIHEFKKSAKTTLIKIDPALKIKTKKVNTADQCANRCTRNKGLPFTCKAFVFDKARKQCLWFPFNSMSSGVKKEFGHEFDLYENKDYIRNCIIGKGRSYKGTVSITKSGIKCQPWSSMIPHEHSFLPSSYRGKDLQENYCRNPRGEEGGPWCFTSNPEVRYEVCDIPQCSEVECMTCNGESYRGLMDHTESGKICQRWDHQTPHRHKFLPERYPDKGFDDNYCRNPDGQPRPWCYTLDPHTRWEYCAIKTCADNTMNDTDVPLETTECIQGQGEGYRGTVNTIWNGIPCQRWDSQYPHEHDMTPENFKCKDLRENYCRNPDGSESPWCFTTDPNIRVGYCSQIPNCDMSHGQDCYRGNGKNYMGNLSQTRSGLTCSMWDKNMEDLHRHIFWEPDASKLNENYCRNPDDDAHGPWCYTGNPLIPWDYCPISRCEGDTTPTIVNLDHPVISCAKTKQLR
- Sequence (P14210 495-728, chain 2 of 2): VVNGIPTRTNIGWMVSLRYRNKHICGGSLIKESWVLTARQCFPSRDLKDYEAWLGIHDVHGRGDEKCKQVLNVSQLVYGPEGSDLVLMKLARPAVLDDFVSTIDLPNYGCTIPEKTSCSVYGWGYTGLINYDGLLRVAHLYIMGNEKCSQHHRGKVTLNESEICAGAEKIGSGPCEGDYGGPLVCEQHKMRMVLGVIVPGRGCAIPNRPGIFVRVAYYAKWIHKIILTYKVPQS
- assay.protocol: filter; one or two 5' G
- study.conditions: tags: R&D Systems
- Experimental: In binding reactions, RNA concentrations were kept as low as possible—between 1 and 20 pM—to ensure equilibrium in conditions of protein excess. Oligonucleotides were incubated for 15 minutes at 37° C. with varying amounts of the protein in 43 µl of the binding buffer. […] The amount of radioactivity retained on the filters was quantitated by imaging. The radioactivity that bound to filters in the absence of protein was used for background correction. […]
So I've got a bunch of binders here, and I need their pKd values.
Give bare numbers, as −log10 of the molar value.

// solved cases for pKd follow
{"binder": "GGGUUUGAGUGACGAUCGUCUUGUCCCAUGUGCA (ssRNA, 2'-F pyrimidines) [Tr15]", "pKd": 8.06}
{"binder": "GGUGAAUUCCUCUGGCUGAAAAUGACUUGUGCCA (ssRNA, 2'-F pyrimidines) [Tr31]", "pKd": 8.04}
{"binder": "GGAGUGAUCCUAUUUAUGCCGUCGCUUCUCGCCA (ssRNA, 2'-F pyrimidines) [Tr44]", "pKd": 8.19}
{"binder": "GGUCAGAAUGACUUUCAUAGCUCGCUUUCCCCCA (ssRNA, 2'-F pyrimidines) [Tr71]", "pKd": 8.11}
{"binder": "GGAUUGAUUCACUGCAUCCUUGACUCUUCCCCCA (ssRNA, 2'-F pyrimidines) [Tr1]", "pKd": 8.14}
{"binder": "GGUGGGAACCUAUUUAUGUCAUCUCCGUCCCCA (ssRNA, 2'-F pyrimidines) [Tr45]", "pKd": 8.77}
{"binder": "GGUGAUCACCUGUUUAUGCCAUCGUUCUGGGCCA (ssRNA, 2'-F pyrimidines) [Tr48]", "pKd": 8.74}
{"binder": "GGUGAUAACCUAUUUAUGACGUCGUGGCUCCCCA (ssRNA, 2'-F pyrimidines) [Tr42]", "pKd": 8.21}

Parameter requested: pKd. Apply to each item below.
1. GGCGGUGUGAACCUGUUUAUGUCCGCGUACCCCA (ssRNA, 2'-F pyrimidines) [Tr7]
2. GGGCGGCUCGAUGUCGUCUUAUCCCUUUGCCCCA (ssRNA, 2'-F pyrimidines) [Tr17]
3. GGCGUGAGCCUAUUUAUGUCAUCAUGUCUGUGCA (ssRNA, 2'-F pyrimidines) [Tr6]
4. GGACAGUUUGUCUUCUAUAGCUCGUCGCCCCCA (ssRNA, 2'-F pyrimidines) [Tr59]
5. GGGUGACUCAAAAUGGUGAUCCUCGUUUCCGCCA (ssRNA, 2'-F pyrimidines) [Tr4]

1. 9.17
2. 8.52
3. 8.05
4. 8.14
5. 8.85

These measurements were taken from patent US6344321.
